// provenance: patent US20050100595A1

Test: in vivo
Settings: male, Sprague-Dawley, rat, po, 25 mg/kg
assayMetric: Tmax

Task: For O=c1oc2ccccc2c(O)c1Cc1c(O)c2ccccc2oc1=O , what is its reported Tmax?
Result: 14 h

---

Experiment: in vivo
Settings: male, Sprague-Dawley, rat, 25 mg/kg
assayMetric: bioavailability (%)
Please respond with the number in % and leave the unit unwritten.

Task: Quick check: bioavailability of O=c1oc2ccccc2c(O)c1Cc1c(O)c2ccccc2oc1=O [Stock, Dicumarol] ?
Result: 90.1
